Biological target: HLA-A*69:01
Assay: IEDB peptide-MHC binding, purified MHC/direct/fluorescence; filed as Kd, often an IC50 or EC50 that approximates it; bounds were set here for any values at or beyond the usual limits of such assays
Settings: source organism: Yellow fever virus 1899/81
pKd: −log10 of the molar value.
readout.name: pKd

Challenge: Entry RADEINAIL : reported pKd = ?
Response given: ≤ 4.70

###

Molecular target: HLA-B*27:03
Assay: IEDB peptide-MHC binding, purified MHC/competitive/fluorescence; filed as Kd, often an IC50 or EC50 that approximates it; bounds were set here for any values at or beyond the usual limits of such assays
Details: source organism: Orthohantavirus andesense
readout.name: Kd

Challenge: Entry AYDHGNVIL : reported Kd = ?
Response given: ≥ 20 µM

Source of measurements: the Immune Epitope Database (IEDB)
